Listing of recorded plasma membrane CFTR intensity by entry.
# target.desc: Cystic fibrosis transmembrane conductance regulator (Homo sapiens) (UniProt P13569)
# Sequence (P13569 whole entry, looked up, stated change not applied): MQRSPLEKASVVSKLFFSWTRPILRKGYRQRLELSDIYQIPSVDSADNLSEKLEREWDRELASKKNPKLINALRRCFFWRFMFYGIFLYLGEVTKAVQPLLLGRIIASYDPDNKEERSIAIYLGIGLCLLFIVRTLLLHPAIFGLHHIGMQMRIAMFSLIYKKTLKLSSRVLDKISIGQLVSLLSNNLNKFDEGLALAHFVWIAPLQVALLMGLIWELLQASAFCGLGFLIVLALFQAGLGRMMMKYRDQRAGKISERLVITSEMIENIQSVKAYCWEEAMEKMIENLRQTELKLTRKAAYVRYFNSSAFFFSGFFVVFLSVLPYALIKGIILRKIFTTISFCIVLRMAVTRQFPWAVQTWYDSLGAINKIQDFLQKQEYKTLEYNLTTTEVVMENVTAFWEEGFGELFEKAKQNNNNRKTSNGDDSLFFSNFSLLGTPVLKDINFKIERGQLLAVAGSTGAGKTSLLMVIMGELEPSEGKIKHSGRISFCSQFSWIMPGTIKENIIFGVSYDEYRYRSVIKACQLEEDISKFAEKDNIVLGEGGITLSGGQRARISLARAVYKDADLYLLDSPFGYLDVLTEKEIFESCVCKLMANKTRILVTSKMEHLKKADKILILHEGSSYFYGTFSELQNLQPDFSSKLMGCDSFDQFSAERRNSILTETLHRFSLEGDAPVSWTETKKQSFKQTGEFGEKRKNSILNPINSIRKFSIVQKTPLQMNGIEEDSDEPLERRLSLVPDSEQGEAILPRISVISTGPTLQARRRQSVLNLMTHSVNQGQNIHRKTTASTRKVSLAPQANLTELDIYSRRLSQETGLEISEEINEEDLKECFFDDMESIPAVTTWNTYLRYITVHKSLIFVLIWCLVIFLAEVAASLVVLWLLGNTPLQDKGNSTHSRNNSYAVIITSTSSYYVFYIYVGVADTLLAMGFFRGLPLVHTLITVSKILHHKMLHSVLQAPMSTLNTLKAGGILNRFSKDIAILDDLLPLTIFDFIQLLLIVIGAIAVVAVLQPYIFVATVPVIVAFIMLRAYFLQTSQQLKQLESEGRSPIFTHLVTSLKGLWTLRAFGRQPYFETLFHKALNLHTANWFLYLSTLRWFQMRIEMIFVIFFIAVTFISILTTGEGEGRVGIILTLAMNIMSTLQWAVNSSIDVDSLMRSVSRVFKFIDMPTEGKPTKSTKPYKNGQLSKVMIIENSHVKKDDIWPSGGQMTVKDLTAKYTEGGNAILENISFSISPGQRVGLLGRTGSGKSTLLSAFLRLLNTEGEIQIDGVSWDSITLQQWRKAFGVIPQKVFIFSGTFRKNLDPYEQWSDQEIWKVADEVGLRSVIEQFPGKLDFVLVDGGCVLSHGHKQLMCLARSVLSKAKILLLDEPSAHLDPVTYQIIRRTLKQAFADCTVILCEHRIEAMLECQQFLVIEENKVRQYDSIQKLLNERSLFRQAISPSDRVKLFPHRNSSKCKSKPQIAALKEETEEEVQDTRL
# test: F508del-CFTR plasma membrane relocalization enhancers – imaging, HeLa, high-content microscopy, immunofluorescence, primary screen (AID 1224864);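 note: HeLa cells stably expressing F508del-CFTR stained with 3G11 antibody against NBD1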;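 for plasma membrane CFTR intensity: mean immunofluorescence in a thin cell-margin band taken as plasma membrane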
# setup.conditions: PM immunofluorescence imaging, 24 h, at 10 µM, stronger effect = higher value, relative to vehicle wells set at 100
Out of some 2,000 compounds screened, about 20 (1%) were called active. This excerpt belongs to a sample that is enriched for actives.
// note: answer is a bare numeric in %

INPUT: What measured plasma membrane CFTR intensity is associated with CC1=C/C(=N\N=C2/NC(=O)C(CC(=O)Nc3ccccc3F)S2)CC(C)(C)C1 (stereo unspecified) on Cystic fibrosis transmembrane conductance regulator (Homo sapiens) (UniProt P13569)?
OUTPUT: 65

INPUT: For CCOC(=O)C1C(=O)CC(C)(O)C(C(=O)OCC)C1/C=C/c1ccccc1 (stereo unspecified) then?
OUTPUT: 95

INPUT: Please answer likewise for CN(C)c1ccc(CNCCC(Cc2ccccc2)c2ccco2)cc1 (stereo unspecified)
OUTPUT: 50

INPUT: Same thing, different compound: `Cc1cc(OCC(=O)C(C)(C)C)c2c(C)c(C)c(=O)oc2c1`
OUTPUT: 86

INPUT: Please do the same for `Cn1cc(CN2CCC(C(=O)N3CCCCC3)CC2)c(-c2ccccc2F)n1` as well.
OUTPUT: 79

INPUT: Same lookup for `COc1cc2ccc(=O)oc2c(O)c1OCC=C(C)C` , please.
OUTPUT: 86

INPUT: Check `CCOC(=O)C(=O)Nc1ccc(Oc2ccccc2)cc1` too.
OUTPUT: 85

INPUT: Also, `CCCCC/C=C\C[C@H](O)/C=C/c1cccc(C[C@H](O)CCCCO)n1` please.
OUTPUT: 107

----------
# target.desc: Cystic fibrosis transmembrane conductance regulator (Homo sapiens) (UniProt P13569)
# test: F508del-CFTR plasma membrane relocalization enhancers – imaging, HeLa, high-content microscopy, immunofluorescence, primary screen (AID 1224864);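 note: HeLa cells stably expressing F508del-CFTR stained with 3G11 antibody against NBD1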
# setup.conditions: PM immunofluorescence imaging, 24 h, at 10 µM, stronger effect = higher value, relative to vehicle wells set at 100; measured here: total cellular F508del-CFTR signal
Out of some 2,000 compounds screened, about 20 (1%) were called active. Many of the other results were omitted from the sample, so actives are more common in it than they were.
Class 1: total CFTR intensity at least 90%. Class -1: total CFTR intensity below 90%.

See these solved cases before continuing.
CNC[C@H](O)c1ccc(O)c(O)c1 ... 1
CCN(CC)CCOC(=O)C1(C2CCCCC2)CCCCC1 ... 1
CC(C)OC(=O)C1C(=O)CC(C)(O)C(C(=O)OC(C)C)C1c1cccc(O)c1 (stereo not drawn) ... -1
CCOC(=O)C1=C(N)Oc2c(c(=O)[nH]c3ccccc23)C1c1ccccc1 (stereo not drawn) ... 1
Fc1ccc(NC(=S)Nc2ccccc2Cl)cc1 ... 1

INPUT: Does the molecule `CNC[C@H](O)c1cccc(O)c1` have recorded total CFTR intensity that is 90% or more?
OUTPUT: 1

INPUT: And then `O=C1C=CC(=O)C(C2=C3C(=O)N(CCc4ccccc4)CC(=O)N3CCC2)=C1` , what is it?
OUTPUT: 1

----------
# target.desc: Cystic fibrosis transmembrane conductance regulator (Homo sapiens)
# test: F508del-CFTR plasma membrane relocalization enhancers – imaging, HeLa, high-content microscopy, immunofluorescence, primary screen (AID 1224864);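 note: HeLa cells stably expressing F508del-CFTR stained with 3G11 antibody against NBD1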
# setup.conditions: PM immunofluorescence imaging, 24 h, at 10 µM, stronger effect = higher value, relative to vehicle wells set at 100; measured here: total cellular F508del-CFTR signal
Hit rate of the full screen: of about 2,000 compounds, about 20 (1%) were called active. This is one part of a sample in which actives are shown more often than they occur.
We use 90% as the dividing line for total CFTR intensity: on or above the line is True, below is False.

Example results:
FC(F)(F)c1ccc(-c2noc(CN3CCCN(C4CCCCC4)CC3)n2)cc1 ... True
CCN1C(=O)C(CC(=O)Nc2ccc(F)cc2)N(Cc2ccc3c(c2)OCO3)C1=S (stereo unspecified) ... False

INPUT: Is the recorded value of total CFTR intensity equal to or greater than 90% for this compound? `CCNC(=O)c1sc2cc(C)ccc2c1Cl`
OUTPUT: True

INPUT: // same read-out, input: CC(NC(=O)c1cccnc1)C(=O)O (stereo unspecified)
OUTPUT: False

INPUT: Same for `CCN(CC)CCNc1ccc(CO)c2sc3ccccc3c(=O)c12`
OUTPUT: True

INPUT: Now the compound `COC(=O)c1cc(-c2ccc(C)o2)nc2ccccc12`
OUTPUT: True

INPUT: Also `Cn1c(=O)[nH]c(=O)c2c1nc(Br)n2CCCO` , if possible.
OUTPUT: False

INPUT: Also `CCCCC/C=C\C[C@H](O)/C=C/c1cccc(C[C@H](O)CCCCO)n1` ?
OUTPUT: True
